# credit: ChEMBL document CHEMBL2401731

Target: Thromboxane A2 receptor (Homo sapiens)
Experiment: Antagonist activity at human thromboxane A2 receptor beta over-expressed in HEK293 cells assessed as inhibition of U-46619-induced intracellular calcium mobilization mobilization by fluorescence assay
Type: functional, cell-based
Measured attribute: IC50 (µM)

q: # lookup: IC50 of CC(C)(C)NC(=O)NS(=O)(=O)c1cc(C#N)ccc1Oc1ccc(Cl)cc1
a: 5.27

q: Another compound to check: CC(C)(C)NC(=O)NS(=O)(=O)c1cc(C#N)ccc1Nc1ccc(F)cc1
a: 4.91

q: Thanks! And CC(C)(C)NC(=O)NS(=O)(=O)c1cc(C#N)ccc1Oc1ccc(F)cc1 ?
a: 3.89

---

Biological target: Thromboxane A2 receptor (Homo sapiens, UniProt P21731)
Sequence (P21731 whole entry): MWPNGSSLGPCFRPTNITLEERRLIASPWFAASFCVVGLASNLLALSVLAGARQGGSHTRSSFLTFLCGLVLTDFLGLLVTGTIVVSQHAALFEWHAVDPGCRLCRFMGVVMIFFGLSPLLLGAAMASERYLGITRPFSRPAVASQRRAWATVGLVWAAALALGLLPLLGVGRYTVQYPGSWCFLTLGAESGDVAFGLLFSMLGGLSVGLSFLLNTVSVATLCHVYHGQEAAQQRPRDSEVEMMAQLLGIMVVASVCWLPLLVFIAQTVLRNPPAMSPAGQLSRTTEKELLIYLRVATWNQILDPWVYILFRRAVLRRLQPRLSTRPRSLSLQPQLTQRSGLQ
Experiment: Antagonist activity at human thromboxane A2 receptor alpha over-expressed in HEK293 cells assessed as inhibition of U-46619-induced intracellular calcium mobilization by fluorescence assay
Type: functional, cell-based
pIC50: −log10 of the molar value.
Measured attribute: pIC50

Consider the following illustrative entries.
q: Given the compound Cc1ccccc1Nc1ccc(C#N)cc1S(=O)(=O)NC(=O)NC(C)C , what is its reported pIC50?
a: 5.14

q: Now this one: CCCCCNC(=O)NS(=O)(=O)c1cc(C#N)ccc1Nc1ccc(C)cc1
a: 5.98

q: Record: CC(C)NC(=O)NS(=O)(=O)c1cc(C#N)ccc1Nc1ccc(F)cc1
a: 5.09

1: CC(C)(C)NC(=O)NS(=O)(=O)c1cc(C#N)ccc1Oc1ccc(F)cc1
2: Cc1ccc(Nc2ccc(C#N)cc2S(=O)(=O)NC(=O)NC(C)(C)C)cc1
3: CCCCCNC(=O)NS(=O)(=O)c1cc(C#N)ccc1Oc1ccccc1C
4: CC(C)NC(=O)NS(=O)(=O)c1cc(C#N)ccc1Oc1ccc(F)cc1
q: Given 4 compounds, produce a descending ranking by pIC50. Reply format: the labels, ordered as requested.
a: 2, 3, 1, 4
(2: 6.07, 3: 5.65, 1: 5.36, 4: 5.02)

P: CCCCCNC(=O)NS(=O)(=O)c1cc(C#N)ccc1Nc1cccc(C)c1
Q: CC(C)(C)NC(=O)NS(=O)(=O)c1cc(C#N)ccc1Oc1ccc(Cl)cc1
q: Recorded pIC50 values differ for P and Q ; which one is higher? Give the chosen item's label as your response.
a: P

---

Biological target: Thromboxane A2 receptor (Homo sapiens, UniProt P21731)
Experiment: Antagonist activity at human thromboxane A2 receptor beta over-expressed in HEK293 cells assessed as inhibition of U-46619-induced intracellular calcium mobilization mobilization by fluorescence assay
Assay type: functional, cell-based
Measured attribute: IC50 (µM)

q: What IC50 value was documented for this compound, Cc1ccccc1Oc1ccc(C#N)cc1S(=O)(=O)NC(=O)NC(C)(C)C ?
a: 1.47

q: Note, next up: Cc1ccccc1Oc1ccc(C#N)cc1S(=O)(=O)NC(=O)NC(C)C
a: 6.13

q: Subsequent entry: CCCCCNC(=O)NS(=O)(=O)c1cc(C#N)ccc1Oc1ccc(F)cc1
a: 9.53

q: Could you do the same for CC(C)NC(=O)NS(=O)(=O)c1cc(C#N)ccc1Nc1ccc(F)cc1 , please?
a: 7.83

q: Then Cc1ccc(Nc2ccc([N+](=O)[O-])cc2S(=O)(=O)NC(=O)NC(C)(C)C)cc1 ?
a: 0.62

a: CC(C)(C)NC(=O)NS(=O)(=O)c1cc(C#N)ccc1Oc1ccc(Br)cc1
b: Cc1cccc(Nc2ccc(C#N)cc2S(=O)(=O)NC(=O)NC(C)C)c1
q: For the pair a and b , which entry has the numerically smaller recorded IC50? Identify your selection by its label.
a: a
(a: 5.31 µM, b: 9.11 µM)

---

Target: Thromboxane A2 receptor (Homo sapiens, UniProt P21731)
Experiment: Antagonist activity at human thromboxane A2 receptor beta over-expressed in HEK293 cells assessed as inhibition of U-46619-induced intracellular calcium mobilization mobilization by fluorescence assay
Format: functional, cell-based
Measured attribute: IC50 (µM)

q: Value wanted: IC50 (Thromboxane A2 receptor (Homo sapiens, UniProt P21731)) of entry CC(C)NC(=O)NS(=O)(=O)c1cc(C#N)ccc1Oc1ccc(Br)cc1
a: 9.13

q: Do the same for CC(C)(C)NC(=O)NS(=O)(=O)c1cc(C#N)ccc1Oc1ccc(I)cc1 please
a: 5.54

q: Record: CCCCCNC(=O)NS(=O)(=O)c1cc(C#N)ccc1Oc1ccc(Cl)cc1
a: 8.72

q: Another: CCCCCNC(=O)NS(=O)(=O)c1cc(C#N)ccc1Nc1ccccc1C
a: 7.85
